Target: MDR1 (ABCB1) (Homo sapiens, UniProt P08183)
Sequence (P08183 whole entry): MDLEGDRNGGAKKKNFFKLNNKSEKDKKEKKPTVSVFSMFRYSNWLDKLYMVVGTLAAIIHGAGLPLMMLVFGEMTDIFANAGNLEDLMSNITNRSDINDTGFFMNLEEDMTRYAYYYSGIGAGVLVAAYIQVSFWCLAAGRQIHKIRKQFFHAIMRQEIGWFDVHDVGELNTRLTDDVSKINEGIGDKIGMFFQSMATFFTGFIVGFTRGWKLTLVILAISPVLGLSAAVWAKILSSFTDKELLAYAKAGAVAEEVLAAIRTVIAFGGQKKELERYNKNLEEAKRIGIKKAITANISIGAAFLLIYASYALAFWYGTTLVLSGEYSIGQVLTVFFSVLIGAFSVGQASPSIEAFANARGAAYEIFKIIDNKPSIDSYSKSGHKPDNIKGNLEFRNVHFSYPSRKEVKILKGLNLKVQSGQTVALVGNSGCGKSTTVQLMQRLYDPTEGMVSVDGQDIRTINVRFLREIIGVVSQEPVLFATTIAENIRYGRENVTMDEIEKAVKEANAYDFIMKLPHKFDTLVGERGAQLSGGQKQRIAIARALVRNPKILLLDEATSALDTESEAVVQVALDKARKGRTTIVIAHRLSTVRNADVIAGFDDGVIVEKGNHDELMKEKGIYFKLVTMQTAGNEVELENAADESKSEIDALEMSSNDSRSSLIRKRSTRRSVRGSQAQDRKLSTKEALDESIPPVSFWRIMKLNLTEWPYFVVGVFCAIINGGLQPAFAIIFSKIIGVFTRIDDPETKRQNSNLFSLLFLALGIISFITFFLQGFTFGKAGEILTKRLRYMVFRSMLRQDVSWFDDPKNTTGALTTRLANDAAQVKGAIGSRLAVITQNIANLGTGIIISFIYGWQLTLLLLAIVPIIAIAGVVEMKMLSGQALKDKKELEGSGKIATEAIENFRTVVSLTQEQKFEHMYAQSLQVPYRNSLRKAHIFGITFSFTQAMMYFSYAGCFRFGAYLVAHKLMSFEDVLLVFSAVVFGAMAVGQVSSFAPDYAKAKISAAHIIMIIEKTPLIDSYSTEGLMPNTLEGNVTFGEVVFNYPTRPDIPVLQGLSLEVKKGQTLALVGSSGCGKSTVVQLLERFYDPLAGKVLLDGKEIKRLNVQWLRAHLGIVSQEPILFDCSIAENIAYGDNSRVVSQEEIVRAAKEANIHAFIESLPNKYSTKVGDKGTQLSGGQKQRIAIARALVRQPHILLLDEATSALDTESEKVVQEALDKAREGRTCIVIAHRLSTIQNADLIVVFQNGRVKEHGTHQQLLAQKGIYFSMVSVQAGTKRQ
Assay: DNDI: % of compound recovered from basolateral to apical permeability assay in MDCK cells transfected with human MDR1
Assay type: ADME, cell-based, Canis lupus familiaris
Settings: dog
reported metric: recovery
In your response, put the unit directly after the numeric value.

Observe how each entry below is paired with its result.
O/N=C(/NC1CCCCC1)c1cccnc1Oc1ccccc1Cl: 67%
CCCCCC(C)NCc1coc(-c2ccc(OCC)cc2)n1 (stereo not given): 56%
O/N=C(/NC1CCCCC1)c1cccnc1Oc1ccccc1: 83%
CCOc1ccc(-c2nc(CNC[C@@H]3CC[C@H]4C[C@@H]3C4(C)C)co2)cc1: 42%

Return value of recovery for input `COc1ccccc1Oc1ncccc1/C(=N\O)NC1CCCCC1` , no commentary.
84%

* * *

Experiment: DNDI: Cytotoxicity against L929 mouse fibroblasts, 72 hour.
Format: toxicity, cell-based
Conditions: mouse, L929 mouse fibroblasts
reported metric: IC50 at 72 h

Below are worked cases with known answers.
CCCCCC(C)NCc1coc(-c2c(Cl)cccc2Cl)n1 (stereo not drawn): 5.76 µg/mL
CCCCc1ccc(-c2nc(C)c(C)o2)cc1: 5.21 µg/mL
CCCCCC(C)NCc1coc(-c2ccc(OC(F)(F)C(F)F)cc2)n1 (stereo not drawn): 4.3 µg/mL
CC(C)(C)OC(=O)N1CCN(c2cc(C(C)(C)C)nc3cc(-c4ccc(F)cc4)nn23)CC1: > 10 µg/mL
CCCCc1ccc(-c2nc(CNC(CC)CC)co2)cc1: 1.83 µg/mL
COc1cccc(C(NCc2ccc(C)cc2)c2nc(Cc3ccccc3)c(N3CCOCC3)o2)c1 (stereo not drawn): > 10 µg/mL

Read the entry `CCOc1ccc(-c2nc(CN(C)Cc3coc(-c4ccc(OCC)cc4)n3)co2)cc1` and write its reported IC50 at 72 h.
> 50 µg/mL

Supply reported IC50 at 72 h belonging to this compound: Cc1cccc(-c2nc(CNCCC3CCCN3C)c(C)o2)c1 (stereo not drawn)
9.29 µg/mL

Indicate the recorded IC50 at 72 h value for this compound: `O=c1[nH]c(=O)c2sccc2[nH]1`
> 10 µg/mL

For `O/N=C(\NC1CCCCC1)c1cccnc1Oc1c(F)cccc1F` , write its IC50 at 72 h.
> 10 µg/mL

State its IC50 at 72 h for this compound: CCCCCC(C)NCc1cccc(-c2ccccc2)c1 (stereo not drawn)
3.39 µg/mL

* * *

Assay: DNDI: Cytotoxicity against L929 mouse fibroblasts, CYTO-SP, 24 hour
Format: toxicity, cell-based
Conditions: mouse, L929 mouse fibroblasts
# Lookup of reported IC50 at 24 h keyed by entry

COCC(C)N/C(=N\O)c1ccnc(Oc2ccc(F)c(Cl)c2)c1 (stereo unspecified): > 50 µg/mL
CCCCCC(C)NCc1coc(-c2ccc(OCC)cc2)n1 (stereo unspecified): > 50 µg/mL
O/N=C(\NCC1CC1)c1cccnc1Oc1ccc2ccccc2c1: > 50 µg/mL
CCc1ccccc1Oc1ncccc1C#N: > 50 µg/mL
CCCCOc1ccc(-c2nc(CNC3CCCCCC3)co2)cc1: 11.7 µg/mL

Tell us which IC50 at 24 h value is on record for `O/N=C(\NC1CCCC1)c1cccnc1Oc1c(F)cccc1F`
> 50 µg/mL

Fill in reported IC50 at 24 h for this entry: CC1CC(NCc2coc(-c3ccc(C(F)(F)F)cc3)n2)CC(C)(C)C1 (stereo unspecified)
> 50 µg/mL

Consider the compound CCCCCC(C)NCc1coc(-c2ccccc2Cl)n1 (stereo unspecified) and give its recorded IC50 at 24 h.
17 µg/mL

Read off the recorded IC50 at 24 h for CCCCCC(C)NCc1coc(-c2cccc(C)c2)n1 (stereo unspecified)
16 µg/mL

Please list IC50 at 24 h recorded for the compound CCCCCC(C)NCc1coc(-c2ccc(C)cc2)n1 (stereo unspecified)
17 µg/mL

Entry `CC(C)COc1ncccc1/C(=N/O)NC1CCCC1` needs its IC50 at 24 h filled in; supply it.
> 50 µg/mL

Name the recorded IC50 at 24 h of the item `O/N=C(/c1ccccc1-c1ccccc1)N1CCCCCCC1` in your answer.
> 50 µg/mL

Given `Cc1cc(C)cc(Oc2ccc(/C(=N/O)NC3CCCCC3)cn2)c1` , respond with its IC50 at 24 h.
> 50 µg/mL

Supply measured IC50 at 24 h of CCCCCC(C)NCc1cc(-c2ccccc2)nn1C (stereo unspecified) in your reply.
50 µg/mL

Using the record for `N#Cc1cccnc1Oc1ccc2ccccc2c1` , state its measured IC50 at 24 h.
> 50 µg/mL

Provide only the value of recorded IC50 at 24 h for `CSc1ccccc1Oc1ncccc1/C(=N\O)NC1CCCCC1`
> 50 µg/mL

* * *

Assay: DNDI: Cytotoxicity against L929 mouse fibroblasts, CYTO-SP, 24 hour
Format: toxicity, cell-based
Settings: mouse, L929 mouse fibroblasts
reported metric: IC50 at 24 h

CCCCCOc1ccc(-c2nc(CNC3[C@H]4C[C@@H]5C[C@@H](C[C@H]3C5)C4)co2)cc1 (stereo partly drawn): > 50 µg/mL
Cc1cc(C)cc(CN/C(=N\O)c2cccnc2Oc2c(F)cccc2F)c1: > 50 µg/mL
COc1cc(C)ccc1Oc1nc(C)ccc1/C(=N/O)NCc1cc(F)cc(F)c1: > 50 µg/mL
CCCCc1ccc(-c2nc(C)co2)cc1: > 50 µg/mL
COc1ccc(N/C(=N/O)c2ccc(OC)cc2)cc1: > 50 µg/mL

Return IC50 at 24 h for the following compound: `O/N=C(/Nc1ccc(F)cc1)c1ccccc1-c1ccccc1`
> 50 µg/mL

# return recorded IC50 at 24 h for entry `Cc1ccccc1CN/C(=N\O)c1cccnc1Oc1ccc(C(C)C)cc1`
44.9 µg/mL

Return reported IC50 at 24 h. Input compound: CCCCc1ccc(-c2nc(CNC3CC(C)CC(C)(C)C3)co2)cc1 (stereo not drawn)
> 50 µg/mL

Return IC50 at 24 h (reported value) for this compound: `Cc1ccc2cccc(Oc3ccc(/C(=N/O)NC4CCCCC4)cn3)c2n1`
> 50 µg/mL

Output measured IC50 at 24 h for this item: `O/N=C(\NC1CCCCC1)c1ccc(F)cc1`
> 50 µg/mL

Hello, please tell me recorded IC50 at 24 h for this one: CCCCCC(C)OCc1coc(-c2ccccc2)n1 (stereo not drawn)
> 50 µg/mL

Fill in IC50 at 24 h for record `O/N=C1/CCCCCN1`
> 50 µg/mL

* * *

Reported IC50 at 24 h values for the following molecules.
Assay: DNDI: Cytotoxicity against L929 mouse fibroblasts, CYTO-SP, 24 hour
Format: toxicity, cell-based
Details: mouse, L929 mouse fibroblasts

Completed entries (count: 3):
COc1ccc(C(=O)N(C)OC)cc1: > 50 µg/mL
O/N=C(\NCC1CCCCC1)c1ccccc1-c1ccccc1: 16.1 µg/mL
Clc1ccc(-c2nc(CNCCCN3CCCC3)co2)c(Cl)c1: 33.6 µg/mL

Consider the molecule `CCC(CC)N/C(=N\O)c1ccc(C)nc1Oc1ccc(SC)cc1` and give its recorded IC50 at 24 h.
> 50 µg/mL

* * *

Experiment: DNDI: half life in mouse liver microsomes at a concentration of 10uM
Type: ADME, Microsome
We'd kindly ask you to apply these half-life at 10 µM classes: low interval = under 20 min, middle interval = from 20 min up to 80 min, high interval = 80 min and over

Please review the entries below; each comes with its answer.
CCCCCC(C)NCc1coc(-c2ccc(OCCCC)cc2)n1 (stereo not drawn): high interval
COc1cccc(/C(=N/O)NC2CCCCC2)c1: low interval
CCCCCC(C)NCc1coc(-c2ccc(-c3ccccc3)cc2)n1 (stereo not drawn): high interval

Which band does CCCCCC(C)NCc1coc(-c2ccc(OC)cc2)n1 (stereo not drawn) fall in?
high interval

Hey, which category is CCOc1ccc(-c2nc(CNC3C[C@@H]4C[C@H]([C@H]3C)C4(C)C)co2)cc1 (stereo partly drawn) in, do you know?
middle interval

Which class does CCCCCC(C)NCc1coc(-c2ccc(C)cc2)n1 (stereo not drawn) fall in?
high interval

* * *

Below is a list of entries, each paired with its recorded chromatographic logD value.
Test: DNDI: Lipophilicity measured in Chromatographic hydrophobicity index (CHI) assay, pH 7.4
Format: physicochemical
Conditions: buffer

Record excerpt, results attached:
Cc1cccc(-c2nc(CNCCC3CCCN3C)c(C)o2)c1 (centres undefined): 3.3
CCCCCOc1ccc(-c2nc(CNC3CC(C)CC(C)(C)C3)co2)cc1 (centres undefined): 6.02
CCCCCC(C)NCc1coc(-c2ccc(CCCC)cc2)n1 (centres undefined): 5.51
CCCCCOc1ccc(-c2nc(CNCCC3CCCN3C)co2)cc1 (centres undefined): 5.2
COc1ccc(/C(=N/O)Nc2cccc(C#N)c2)cc1: 2.41
CCCCCC(C)NCc1coc(-c2ccc(-c3ccccc3)cc2)n1 (centres undefined): 4.94

Tell me measured chromatographic logD for `O/N=C(\Nc1ccccc1)c1ccccc1-c1ccccc1` please.
4.32

Give reported chromatographic logD value for CCCCCC(C)NCc1coc(-c2ccc(OC3CCCC3)cc2)n1 (centres undefined)
> 5.2

State its chromatographic logD for this compound: `CCCCc1ccc(-c2nc(CNC3CCCCCC3)co2)cc1`
5.49

Return value of chromatographic logD for input `O/N=C(\NC1CCCCC1)c1cc(F)cc(F)c1` , no commentary.
4.26
